# Tested on: PIK4CB
# Construct: gene PI4KB
# Test conditions: concentration: 1 μM, replicates: in singlicate; n = 1;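 also: KINOMEscan kinase panel screen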
Outcome measure: %Inh (%)

> print(dat)
                              line.notation  reported.value
1          Cc1cccc(Nc2nc(NCCN)ncc2C(N)=O)c1              22
2  Cc1cccc(Nc2nc(N[C@H]3CCCC[C@H]3N)ncc2C(N)=O)c1.Cl               0
3   O=C(Nc1n[nH]c2nc(-c3ccccc3O)ccc12)C1CC1              24
4  CN(c1ccc(NC(=O)Nc2cccc(Cl)c2)cc1)c1ccnc(N)n1.Cl               3
5  COc1cccc(CC(=O)N2CCc3cc(-c4cn(C)c5ncnc(N)c45)ccc32)c1               0
6     Cc1ccc(O)cc1Nc1ccnc2ccc(C(C)(C)C)cc12              47

###

# Tested on: FGFR1
# Test conditions: concentration: 1 μM, replicates: in singlicate; n = 1
Entry flag: Criterion met if %Inh reaches 9%; Criterion not met if it does not.

> print(dat)
                                    compound           category
 1  Cc1ccc(O)cc1Nc1ccnc2cc(-c3ccc(CN4CCCCC4)o3)ccc12      Criterion met
 2  N#Cc1cnc2cc(-c3cnc(CNCCN4CCOCC4)s3)ccc2c1Nc1ccc(Oc2ccccc2)cc1  Criterion not met
 3  Nc1ncc(-c2cn[nH]c2)c2scc(-c3ccc4c(c3)CCN4C(=O)Cc3ccccc3)c12      Criterion met
 4  Cc1ccc(NC(=O)c2ccc(Cl)c(Cl)c2)cc1-c1ccc(C(=O)Nc2ccncc2)cc1  Criterion not met
 5  CC(C)NCC(Cc1ccccc1)NC(=O)c1cc(Br)c(-c2ccnc3[nH]ccc23)s1.Cl.Cl (centres unmarked)      Criterion met
 6  Cn1cc(-c2ccc3c(c2)CCN3C(=O)Cc2cc(F)cc(F)c2F)c2c(N)ncnc21  Criterion not met
 7  CC(C)c1nc(-c2ccc(F)c(NS(=O)(=O)c3c(F)cccc3F)c2)c(-c2ccnc(Nc3ccc(N4CCOCC4)nc3)n2)s1      Criterion met
 8  CN(c1ccc2c(c1)nc(NCc1ccccc1)n2C)c1ccnc(Nc2ccc(CS(C)(=O)=O)cc2)n1.Cl      Criterion met
 9  COc1ccc(NC(=O)c2ccoc2)cc1-c1ccc(C(=O)NCC2CC2)cc1  Criterion not met
10  COc1cccc(-c2nc(-c3ccccc3)[nH]c2-c2ccncc2)c1  Criterion not met
11  COc1cccc(C2=C(Nc3cccc(O)c3)C(=O)NC2=O)c1  Criterion not met
12  COC(=O)Nc1nc2cc(Oc3ccc(NC(=O)Nc4cccc(SC)c4)cc3)ccc2[nH]1.Cl      Criterion met
13  CC(C)(C)c1ccc(C(=O)Nc2cn3cc(-n4ccnc4)ccc3n2)cc1  Criterion not met
14  COC(=O)Nc1nc2ccc(Oc3ccc(NC(=O)Nc4cc(C(F)(F)F)ccc4F)cc3)cc2[nH]1.Cl      Criterion met
15  CN(c1ccc(NC(=O)N2CCN(CCCN3CCOCC3)CC2)cc1)c1ccnc(Nc2ccc(CS(C)(=O)=O)cc2)n1.Cl  Criterion not met
16  CN(C)CCNS(=O)(=O)c1ccc(-c2ccnc3[nH]ccc23)cc1      Criterion met
17  COC(=O)Nc1nc2ccc(Oc3ccc(CC(=O)Nc4cc(C(F)(F)F)ccc4F)cc3)cc2[nH]1  Criterion not met
18  CCNC(=O)/C=C/c1n[nH]c2cc(Sc3ccccc3C(=O)NC)ccc12      Criterion met
19  CCn1c(-c2nonc2N)nc2c(-c3ccccc3)ncc(OCCCN)c21.O=C(O)C(F)(F)F.O=C(O)C(F)(F)F      Criterion met
